# credit: the NIST ThermoML archive (doi:10.1016/j.jct.2019.02.015)

Conditions: 313.15 K; 101.33 kPa; Liquid; Falling or rolling sphere viscometry
measurement label: viscosity (mPa·s)
Quick note: give the figure in mPa·s, leave out the unit.

Ask | State its viscosity for this compound: CCCC(=O)[O-].CCCCCCCC[NH+](CCCCCCCC)CCCCCCCC [trioctylammonium butanoate]
Reply | 8.55

Ask | Give the measured viscosity for CCCCCCCC(=O)[O-].CCCCCCCC[NH+](CCCCCCCC)CCCCCCCC [trioctylammonium octanoate]
Reply | 11.6

Ask | Answer with the recorded viscosity of CCCC(=O)[O-].CCCCCC[NH+](CCCCCC)CCCCCC [trihexylammonium butanoate] only.
Reply | 6.52

Ask | Give viscosity for the following compound: CCCCCC(=O)[O-].CCCCCC[NH+](CCCCCC)CCCCCC [trihexylammonium hexanoate]
Reply | 6.86

Ask | State its viscosity for this compound: CCCCCCCC(=O)[O-].CCCCCC[NH+](CCCCCC)CCCCCC [trihexylammonium octanoate]
Reply | 8.21

Ask | Answer with reported viscosity of CCCCCC(=O)[O-].CCCCCCCC[NH+](CCCCCCCC)CCCCCCCC [trioctylammonium hexanoate]
Reply | 9.64

----------
Can you tell me refractive index for the items I'm about to list?
Assay: refractive index (Na D-line) (dimensionless)
Settings: 343.15 K; 101.33 kPa; Liquid; Standard Abbe refractometry
Respond using a number only.

Ask | Supply reported refractive index belonging to this compound: CCCCCCCC(=O)[O-].CCCCCCCC[NH+](CCCCCCCC)CCCCCCCC [trioctylammonium octanoate]
Reply | 1.4309

Ask | Look up refractive index of CCCCCC(=O)[O-].CCCCCC[NH+](CCCCCC)CCCCCC [trihexylammonium hexanoate] and report it.
Reply | 1.4238

Ask | Give a short answer stating reported refractive index for CCCCCC(=O)[O-].CCCCCCCC[NH+](CCCCCCCC)CCCCCCCC [trioctylammonium hexanoate] .
Reply | 1.4294

Ask | // Input: CCCCCCCC(=O)[O-].CCCCCC[NH+](CCCCCC)CCCCCC [trihexylammonium octanoate] . Output its refractive index only.
Reply | 1.4258

Ask | Provide only the value of recorded refractive index for CCCC(=O)[O-].CCCCCC[NH+](CCCCCC)CCCCCC [trihexylammonium butanoate]
Reply | 1.4221

Ask | Read off the recorded refractive index for CCCC(=O)[O-].CCCCCCCC[NH+](CCCCCCCC)CCCCCCCC [trioctylammonium butanoate]
Reply | 1.428

----------
Settings: 343.15 K; 101.33 kPa; Liquid; Falling or rolling sphere viscometry
Numbers after ± are expanded uncertainties.
measurement label: viscosity
Give your result as the value with the unit written after it.

Ask | Answer with the recorded viscosity of CCCC(=O)[O-].CCCCCC[NH+](CCCCCC)CCCCCC [trihexylammonium butanoate] only.
Reply | 2.94 mPa·s

Ask | Quickly give me recorded viscosity for CCCCCCCC(=O)[O-].CCCCCCCC[NH+](CCCCCCCC)CCCCCCCC [trioctylammonium octanoate]
Reply | 4.92 ± 2 mPa·s

Ask | Identify measured viscosity associated with CCCCCC(=O)[O-].CCCCCC[NH+](CCCCCC)CCCCCC [trihexylammonium hexanoate]
Reply | 3.12 mPa·s

Ask | # return recorded viscosity for entry CCCCCC(=O)[O-].CCCCCCCC[NH+](CCCCCCCC)CCCCCCCC [trioctylammonium hexanoate]
Reply | 4.14 ± 2 mPa·s

Ask | Provide only the value of recorded viscosity for CCCC(=O)[O-].CCCCCCCC[NH+](CCCCCCCC)CCCCCCCC [trioctylammonium butanoate]
Reply | 3.82 mPa·s

Ask | Give the reported viscosity for this compound. CCCCCCCC(=O)[O-].CCCCCC[NH+](CCCCCC)CCCCCC [trihexylammonium octanoate]
Reply | 3.65 mPa·s

----------
Conditions: 298.15 K; 101.33 kPa; Liquid; Cone and plate viscometry
Numbers after ± are expanded uncertainties.
measurement label: viscosity

Ask | Supply reported viscosity belonging to this molecule: CCCC(=O)[O-].CCCCCC[NH+](CCCCCC)CCCCCC [trihexylammonium butanoate]
Reply | 11.52 ± 4 mPa·s

Ask | Identify measured viscosity associated with CCCCCCCC(=O)[O-].CCCCCCCC[NH+](CCCCCCCC)CCCCCCCC [trioctylammonium octanoate]
Reply | 25.07 ± 4.1 mPa·s

Ask | Return viscosity (reported value) for this molecule: CCCCCCCC(=O)[O-].CCCCCC[NH+](CCCCCC)CCCCCC [trihexylammonium octanoate]
Reply | 15.9 ± 4 mPa·s

Ask | Fill in viscosity for record CCCCCC(=O)[O-].CCCCCC[NH+](CCCCCC)CCCCCC [trihexylammonium hexanoate]
Reply | 12.53 ± 4 mPa·s

Ask | # return recorded viscosity for entry CCCCCC(=O)[O-].CCCCCCCC[NH+](CCCCCCCC)CCCCCCCC [trioctylammonium hexanoate]
Reply | 20.59 ± 4 mPa·s

Ask | Give the reported viscosity for this molecule. CCCC(=O)[O-].CCCCCCCC[NH+](CCCCCCCC)CCCCCCCC [trioctylammonium butanoate]
Reply | 16.03 ± 4 mPa·s

----------
Kindly supply the reported viscosity values for the records listed here.
Conditions: 333.15 K; 101.33 kPa; Liquid; Falling or rolling sphere viscometry
Return type: number; implicit unit mPa·s.

Ask | Indicate its recorded viscosity; the molecule in question is CCCC(=O)[O-].CCCCCC[NH+](CCCCCC)CCCCCC [trihexylammonium butanoate]
Reply | 3.73

Ask | Provide one value: measured viscosity of CCCCCC(=O)[O-].CCCCCC[NH+](CCCCCC)CCCCCC [trihexylammonium hexanoate]
Reply | 3.95

Ask | Annotate the molecule CCCC(=O)[O-].CCCCCCCC[NH+](CCCCCCCC)CCCCCCCC [trioctylammonium butanoate] with its measured viscosity.
Reply | 4.82

Ask | Return the recorded viscosity value; entry: CCCCCCCC(=O)[O-].CCCCCC[NH+](CCCCCC)CCCCCC [trihexylammonium octanoate]
Reply | 4.62

Ask | Annotate the molecule CCCCCCCC(=O)[O-].CCCCCCCC[NH+](CCCCCCCC)CCCCCCCC [trioctylammonium octanoate] with its measured viscosity.
Reply | 6.33

Ask | Supply recorded viscosity for CCCCCC(=O)[O-].CCCCCCCC[NH+](CCCCCCCC)CCCCCCCC [trioctylammonium hexanoate] here.
Reply | 5.32

----------
Provide the reported speed of sound of each item.
Conditions: 328.15 K; 101.33 kPa; Liquid; Single path-length method
Numbers after ± are expanded uncertainties.

Ask | Output measured speed of sound for this item: CCCCCCCC(=O)[O-].CCCCCCCC[NH+](CCCCCCCC)CCCCCCCC [trioctylammonium octanoate]
Reply | 1272 ± 5.4 m/s

Ask | State its speed of sound: CCCC(=O)[O-].CCCCCC[NH+](CCCCCC)CCCCCC [trihexylammonium butanoate]
Reply | 1221 ± 5.4 m/s

Ask | Dear colleague, please send me the reported speed of sound for CCCCCC(=O)[O-].CCCCCCCC[NH+](CCCCCCCC)CCCCCCCC [trioctylammonium hexanoate] when you can.
Reply | 1262.9 ± 5.4 m/s

Ask | Assign speed of sound to the following record: CCCCCCCC(=O)[O-].CCCCCC[NH+](CCCCCC)CCCCCC [trihexylammonium octanoate]
Reply | 1243.2 ± 5.4 m/s

Ask | Report measured speed of sound; entry is CCCCCC(=O)[O-].CCCCCC[NH+](CCCCCC)CCCCCC [trihexylammonium hexanoate]
Reply | 1230.6 ± 5.4 m/s

Ask | Retrieve speed of sound measured for CCCC(=O)[O-].CCCCCCCC[NH+](CCCCCCCC)CCCCCCCC [trioctylammonium butanoate] and print it.
Reply | 1255.6 ± 5.4 m/s

----------
Details: 298.15 K; 101.33 kPa; Liquid; Single path-length method
measurement label: speed of sound (m/s)
Express your answer in m/s, writing the number without its unit.

Ask | Provide only the value of recorded speed of sound for CCCC(=O)[O-].CCCCCC[NH+](CCCCCC)CCCCCC [trihexylammonium butanoate]
Reply | 1326.7

Ask | Identify the reported speed of sound for the following entry. CCCCCCCC(=O)[O-].CCCCCCCC[NH+](CCCCCCCC)CCCCCCCC [trioctylammonium octanoate]
Reply | 1375.3

Ask | Complete the entry with speed of sound for CCCC(=O)[O-].CCCCCCCC[NH+](CCCCCCCC)CCCCCCCC [trioctylammonium butanoate]
Reply | 1359.6

Ask | Give me measured speed of sound, please, for this molecule: CCCCCC(=O)[O-].CCCCCCCC[NH+](CCCCCCCC)CCCCCCCC [trioctylammonium hexanoate]
Reply | 1366.2

Ask | Name the recorded speed of sound of the item CCCCCCCC(=O)[O-].CCCCCC[NH+](CCCCCC)CCCCCC [trihexylammonium octanoate] in your answer.
Reply | 1347.7

Ask | Give the measured speed of sound for CCCCCC(=O)[O-].CCCCCC[NH+](CCCCCC)CCCCCC [trihexylammonium hexanoate]
Reply | 1335.7
